# MEASURED_ON: HIV protease (Human immunodeficiency virus type 1 group M subtype B)
pIC50: −log10 of the molar value.
REPORTED_PROPERTY: pIC50

Asked: What value of pIC50 has been recorded for this entry: CC(C)CN(CC(O)CC(Cc1ccccc1)C(=O)NC1c2ccccc2CC1O)C(=O)OCc1ccccc1 (stereo not shown) [Compound A]
Given back: 8.05 to 8.10
